Measured growth of individual entries
Test system: EKVX NSCLC
assay_explanation: NCI-60 one-dose screen, 48 h (100 = growth as untreated, 0 = no growth, -100 = all killed)
setup_conditions: 10 µM unless noted
About 83,000 compounds went through this panel and 20% of them were active in at least one assay; those are over-represented in the sample as a whole.
Kindly answer with a numeric value in %, unit omitted.

Cc1c(C)c(C)c([N+](=O)[O-])c([N+](=O)[O-])c1C :: 90.7
Oc1[nH]c2ccccc2c1/C=c1/ccc2c(c1)N=C(c1ccc(C(F)(F)F)cc1)N=2 :: 51.1
C=CCn1c(SCC(=O)Nc2ccc(/C(C)=N\O)cc2)nnc1-c1cc(-c2ccccc2)nc2ccccc12 :: 55
COc1ccc2c(c1)CCCC21C(=O)Nc2c(Cl)cccc21 (stereo not given) :: 91

### Prompt What does the data say about its growth? Entry: `COc1ccc(/C(=C\c2ccc3c(c2)OCO3)C(=O)Nc2nc3ccc(F)cc3s2)cc1OC`
### Response 103

* * *

Tested on: KM12 colon
assay_explanation: NCI-60 one-dose screen, 48 h (100 = growth as untreated, 0 = no growth, -100 = all killed)
setup_conditions: 10 µM unless noted
Compounds without any hit were thinned out: in the full panel of roughly 83,000, 20% have a hit.
Recorded growth split into classes Low: < 50%; Medium: ≥ 50% and < 90%; High: ≥ 90%

Examples from the recorded data:
CN1CCN(Cc2ccc(NC(=O)c3cccc(C#Cc4cnc(N)c5ncccc45)c3F)cc2C(F)(F)F)CC1 :: Low
FC(F)(F)c1ccc(/C=N/Nc2nnc3n2N=C(c2ccc(Cl)cc2)CS3)cc1 :: Medium
COc1ccc(C(=O)c2cc(C)c(OC)c(C)c2)cc1OC(=O)CCl :: Low
CC(OC(=O)Nc1cccc(Cl)c1)C(=O)O (stereo not drawn) :: High
Cc1c(O)c(=O)n(-c2ccccc2)n1C :: High

### Prompt Kindly identify the class of `O=C(CN1CCN(c2ccccc2)CC1)N1CCN(c2nnc(-c3ccc(Cl)cc3)c(-c3ccc(Cl)cc3)n2)CC1` .
### Response Low

### Prompt What about COc1ccc(-c2nsc3c2NC(=O)CC3c2ccc3c(c2)OCO3)cc1 (stereo not drawn) ?
### Response Low

### Prompt `NC(N)=N/N=C/c1ccccc1` , same question.
### Response High

### Prompt Also check `COc1cccc(NC(=O)c2c(-c3ccccc3)c(-c3ccccc3)n[nH]c2=O)c1`
### Response High

### Prompt Same for CCN(CC)Cc1cc(Nc2nc(NC3CCC(N(C)C)CC3)c3ccccc3n2)ccc1OC (stereo not drawn)
### Response Medium

### Prompt Then this compound: `COc1cc(/C=C/C(=O)c2ccc(NC(=O)CSc3nnc(-c4ccc(Cl)cc4)n3-c3ccccc3)cc2)cc(OC)c1OC`
### Response Medium

### Prompt Entry to check: `Cc1ccc(-c2cnc3sc4ccc(Cl)cc4n23)cc1`
### Response High

### Prompt Now give it for `COc1ccc(-c2nc(-c3ccccc3OCc3ccccc3OC)nc(C)c2C(C)=O)cc1` too.
### Response Medium

### Prompt Okay, and `N#Cc1nc(-c2cccc(Br)c2)cc(-c2ccc(Nc3nc(N4CCCCC4)nc(N4CCCCC4)n3)cc2)c1N` ?
### Response Low

### Prompt Please answer likewise for `COc1cc2nccc(Oc3ccc(NC(=O)C4(C(=O)Nc5c(F)cc(F)cc5F)CC4)cc3)c2cc1Oc1ccc(N)cn1`
### Response Low

### Prompt Item: `CC(=O)O[C@H]1[C@H](CC#CC#CC[C@@H]2C[C@]3(C)[C@H]4CC=C5[C@H]6[C@@H](C)[C@H](C)CC[C@]6(C(=O)NCCN(CCN)CCN)CC[C@@]5(C)[C@]4(C)CC[C@H]3C(C)(C)[C@H]2OC(C)=O)C[C@]2(C)[C@H]3CC=C4[C@H]5[C@@H](C)[C@H](C)CC[C@]5(C(=O)NCCN(CCN)CCN)CC[C@@]4(C)[C@]3(C)CC[C@H]2C1(C)C`
### Response Medium
